System: p38 MAP kinase
Test: Inhibition of p38 MAP kinase in the cell-based assay (p-MAPKAPK2 cELISA, TNFα-stimulated HeLa cells)
Settings: Homo sapiens, TNFα stimulation, read-out: Relative IC50
reported-metric: IC50 (nM)
// units = nM; emit number, no label

Asked: Return the recorded IC50 value; entry: COCC[C@H](C)Nc1nc2ccc(-c3nc(C(C)(C)CO)[nH]c3-c3ccc(F)cc3F)nc2o1
Given back: 1.6

---

Biological target: p38β MAP kinase (Homo sapiens, UniProt Q15759)
Sequence (Q15759 whole entry): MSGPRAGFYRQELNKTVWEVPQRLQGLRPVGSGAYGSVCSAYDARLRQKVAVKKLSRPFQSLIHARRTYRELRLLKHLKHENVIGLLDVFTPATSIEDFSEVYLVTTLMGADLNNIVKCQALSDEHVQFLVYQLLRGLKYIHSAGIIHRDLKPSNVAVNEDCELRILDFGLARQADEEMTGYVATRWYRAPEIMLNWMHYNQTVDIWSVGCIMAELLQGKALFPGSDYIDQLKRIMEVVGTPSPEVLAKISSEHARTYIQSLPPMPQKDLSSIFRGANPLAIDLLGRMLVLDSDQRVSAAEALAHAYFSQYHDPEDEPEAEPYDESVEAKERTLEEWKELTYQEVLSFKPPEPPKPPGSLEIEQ
reported-metric: IC50 (nM)
// units = nM; emit number, no label

Asked: Return the recorded IC50 value; entry: COCC[C@H](C)Nc1nc2ccc(-c3nc(C(C)(C)CO)[nH]c3-c3ccc(F)cc3F)nc2o1
Given back: 7
